- Test system: MCF-7
- test: MTT cytotoxicity assay, MCF-7
- Assay type: cell-based
- condition-details: Homo sapiens, MCF7, 24 h exposure, ± SD, n = 8
measure: IC50

INPUT: # query: IC50 of entry CC1OC(OC2C(OC3C(OC4C(=O)c5c(O)cc(O)cc5OC4c4ccc(O)cc4)OC(C)C(O)C3O)OC(CO)C(O)C2O)C(O)C(O)C1O (stereo not drawn) [Compound 4]
OUTPUT: > 30 µM

INPUT: # query: IC50 of entry CC(=O)OC1C(O)C(C)OC(OC2C(OC3C(OC4C(=O)c5c(O)cc(O)cc5OC4c4ccc(O)cc4)OC(C)C(O)C3O)OC(CO)C(O)C2O)C1O (stereo not drawn) [Compound 5]
OUTPUT: > 30 µM

INPUT: # query: IC50 of entry CC(=O)OC1C(C)OC(OC2C(OC3C(OC4C(=O)c5c(O)cc(O)cc5OC4c4ccc(O)cc4)OC(C)C(O)C3O)OC(CO)C(O)C2O)C(O)C1O (stereo not drawn) [Compound 6]
OUTPUT: > 30 µM
